B1: TPR t1 (parent)
chain: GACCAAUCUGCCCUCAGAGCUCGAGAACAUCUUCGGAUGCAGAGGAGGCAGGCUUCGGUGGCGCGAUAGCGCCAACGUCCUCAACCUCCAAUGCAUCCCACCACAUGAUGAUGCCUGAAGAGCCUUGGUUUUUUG

variants of: B1; test: polymerase ribozyme fitness, log enrichment relative to wild type (log ratio); higher = more active; in vitro selection for triplet polymerase activity
READOUT_LABEL: polymerase ribozyme fitness (log ratio)
Keep the answer to the number alone.

Some variants with known polymerase ribozyme fitness (log ratio) results, for comparison:
{"columns": ["MUTATION_NAME", "polymerase ribozyme fitness (log ratio)"],
 "data": [
  ["C15G G57A", -4.5],
  ["A43G C70U G120U G128U", -3.88],
  ["A16U G93U C123A U133C", -3.02],
  ["C13U C82U A83G A118U", -1.83],
  ["G42A G48C C56G C86U C101G", -4.3],
  ["U21C C70G C94U A111G G128A U131A", -3.27],
  ["G17C C98U C102A A111G A121G G122A", -6.68],
  ["G61A C70G", -4.02]
]}

Request the reported polymerase ribozyme fitness (log ratio) associated with C20A G63U C85G
-5.08
